Item-by-item account of % of binding in the absence of HGF
Tgt: T1, cMet-Fc fusion protein (extracellular domain of the cMet receptor expressed as an Fc-fusion protein) (human, UniProt P08581 25-932)
T1 construct: extracellular domain; also called soluble cMet-Fc-fusion protein; soluble cMet receptor; not shown: Fc part
Protocol Description: phage ELISA on cMet-Fc, competitor HGF 500 ng/mL

Binder	% of binding in the absence of HGF
GSRFHCWQGDLMQTYCMPMAP [452-A03 peptide-displaying phage (SEQ ID NO: 376)]	112%
AQGIAWQLEWSYMPQSPPSFDR [522-H03 peptide-displaying phage (SEQ ID NO: 495)]	94%
AGWTHCIGPPTFECIPMGT [334-G06 peptide-displaying phage (SEQ ID NO: 052)]	43%

Prompt line: For GDLLGCGYQEKGGEYKCRFNDP [334-F05 peptide-displaying phage (SEQ ID NO: 395)] , what is its reported % of binding in the absence of HGF?
Response line: 29%

Prompt line: For AGVTNCNLSTMFCFLHGT [465-F08 peptide-displaying phage (SEQ ID NO: 026)] , what is its reported % of binding in the absence of HGF?
Response line: 116%

Prompt line: For GSWRFCGGEYSFQVCQDVAP [545-C02 peptide-displaying phage (SEQ ID NO: 365)] , what is its reported % of binding in the absence of HGF?
Response line: 31%

Prompt line: For GSLIICWWSWCDKQAP [567-C08 peptide-displaying phage (SEQ ID NO: 009)] , what is its reported % of binding in the absence of HGF?
Response line: 94%
